molecular target: human AR (androgen receptor) (Homo sapiens); construct: expressed in transfected cells; host or cells: 293 cells (293-AR lysate); assay: Steroid hormone nuclear receptor binding assay, AR binding; conditions: average of n trials; read-out: AR binding Ki
Note to self: use met only for Ki readings below 0.008 µM; a reading exactly at 0.008 µM still gets not met.

Example entries begin here.
> print(dat)
                                   compound  answer.label
1  O=C(NC1CCc2c(c3cc(OC(F)(F)F)ccc3n2Cc2cccc(F)n2)C1)C1CC1 (centres unmarked) [Example 163]       not met
2  CC(C)C(=O)NC1CCc2c(c3cc(C#N)cc(Cl)c3n2Cc2cccc(F)c2)C1 (centres unmarked) [Example 119]           met
3  CC(C)C(=O)NC1CCc2c(c3cc(C#N)ccc3n2Cc2ccc(Cl)s2)C1 (centres unmarked) [Example 148]           met
4  CC(C)C(=O)NC1CCc2c(c3cc(Cl)ccc3n2Cc2ccccc2[N+](=O)[O-])C1 (centres unmarked) [Example 104]       not met
5  CC(C)C(=O)NC1CCc2c(c3cc(-c4ccc(F)nc4)ccc3n2Cc2cccc(F)c2)C1 (centres unmarked) [Example 135]       not met
6  O=C(NC1CCc2c(c3cc(Br)ccc3n2Cc2cccc(F)c2)C1)C(F)(F)F (centres unmarked) [Example 174]           met

--- query ---
Hello, I'm reviewing records and need to know if Ki of Cc1ccc(-c2ccc3c(c2)c2c(n3Cc3cccc(F)c3)CCC(NC(=O)C(C)C)C2)nn1 (centres unmarked) [Example 139] is below 0.008 µM. Could you check?
not met

* * *

Target: human androgen receptor (AR) (Homo sapiens, UniProt P10275)
Construct: expressed in transfected cells; host or cells: mouse myoblast C2C12 cells, transiently co-transfected
Sequence (P10275 1-920): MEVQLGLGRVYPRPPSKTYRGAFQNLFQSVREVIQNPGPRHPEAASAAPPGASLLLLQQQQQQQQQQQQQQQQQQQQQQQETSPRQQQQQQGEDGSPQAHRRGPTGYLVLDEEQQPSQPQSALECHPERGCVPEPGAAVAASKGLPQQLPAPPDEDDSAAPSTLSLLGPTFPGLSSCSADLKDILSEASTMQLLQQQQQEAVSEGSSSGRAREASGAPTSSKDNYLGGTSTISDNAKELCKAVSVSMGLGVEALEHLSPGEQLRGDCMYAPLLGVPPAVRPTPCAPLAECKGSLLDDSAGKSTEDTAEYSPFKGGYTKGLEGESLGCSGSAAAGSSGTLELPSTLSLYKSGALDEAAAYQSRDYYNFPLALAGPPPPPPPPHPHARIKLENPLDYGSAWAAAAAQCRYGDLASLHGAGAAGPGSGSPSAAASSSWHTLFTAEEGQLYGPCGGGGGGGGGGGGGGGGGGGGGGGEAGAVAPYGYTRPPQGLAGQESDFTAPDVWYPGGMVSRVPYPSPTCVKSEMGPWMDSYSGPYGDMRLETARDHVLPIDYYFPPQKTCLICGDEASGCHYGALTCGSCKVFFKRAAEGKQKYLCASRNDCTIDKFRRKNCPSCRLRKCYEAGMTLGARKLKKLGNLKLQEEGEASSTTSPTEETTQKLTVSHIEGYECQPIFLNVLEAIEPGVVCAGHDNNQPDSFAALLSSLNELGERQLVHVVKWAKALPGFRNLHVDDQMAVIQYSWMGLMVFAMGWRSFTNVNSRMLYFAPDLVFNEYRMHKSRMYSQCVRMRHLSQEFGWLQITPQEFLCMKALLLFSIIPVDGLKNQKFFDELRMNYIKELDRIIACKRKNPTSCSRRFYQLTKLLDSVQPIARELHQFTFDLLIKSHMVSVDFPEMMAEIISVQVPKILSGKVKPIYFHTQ
Test: C2C12 AR/ARE reporter assay
Assay type: cell-based
Conditions: C2C12 AR/ARE reporter assay; average of n trials; read-out: C2C12 EC50
observation_type: pEC50
In plain terms, pEC50 is the concentration in mol/L turned into minus its base-10 logarithm.

The following molecules have reported results that may help.
> print(dat)
                                   molecule  measured.number
1  CC[C@@H](C)C(=O)NC1CCc2c(c3cc(Br)ccc3n2Cc2cccc(F)c2)C1 (stereo partly shown)             6.39
2  CC(C)C(=O)NC1CCc2c(c3cc(C(N)=S)ccc3n2Cc2cccc(F)c2)C1 (stereo not shown)             8.03

Hello, I am looking for reported pEC50 with human androgen receptor (AR) (Homo sapiens, UniProt P10275) for COc1ccc2c(c1)c1c(n2Cc2ccccc2)CCC(NC(C)=O)C1 (stereo not shown) . Could you help?
7.39

Hello, I am looking for reported pEC50 with human androgen receptor (AR) (Homo sapiens, UniProt P10275) for CO/N=C/c1ccc2c(c1)c1c(n2Cc2cccc(F)c2)CC[C@@H](NC(=O)C(C)C)C1 . Could you help?
8.30

Hello, I am looking for reported pEC50 with human androgen receptor (AR) (Homo sapiens, UniProt P10275) for CC(C)C(=O)NC1CCc2c(c3cc(Cl)ccc3n2Cc2ccccc2N)C1 (stereo not shown) . Could you help?
8.64

Hello, I am looking for reported pEC50 with human androgen receptor (AR) (Homo sapiens, UniProt P10275) for O=C(N[C@@H]1CCc2c(c3cc(/C=N/O)ccc3n2Cc2cccc(F)c2)C1)C1CC1 . Could you help?
7.69

Hello, I am looking for reported pEC50 with human androgen receptor (AR) (Homo sapiens, UniProt P10275) for CC(C)C(=O)N[C@@H]1CCc2c(c3cc(-c4nncs4)ccc3n2Cc2cccc(F)c2)C1 . Could you help?
7.68

Hello, I am looking for reported pEC50 with human androgen receptor (AR) (Homo sapiens, UniProt P10275) for Cc1ccc(-c2ccc3c(c2)c2c(n3Cc3cccc(F)c3)CCC(NC(=O)C(C)C)C2)nn1 (stereo not shown) . Could you help?
7.71

Hello, I am looking for reported pEC50 with human androgen receptor (AR) (Homo sapiens, UniProt P10275) for COc1ccc2c(c1)c1c(n2Cc2cccc(F)c2)CCC(NC(=O)C(C)C)C1 (stereo not shown) . Could you help?
7.79

Hello, I am looking for reported pEC50 with human androgen receptor (AR) (Homo sapiens, UniProt P10275) for CC(C)C(=O)NC1CCc2c(c3cc(-c4ccncc4)ccc3n2Cc2cccc(F)c2)C1 (stereo not shown) . Could you help?
6.44

Hello, I am looking for reported pEC50 with human androgen receptor (AR) (Homo sapiens, UniProt P10275) for CO/N=C/c1ccc2c(c1)c1c(n2Cc2cccc(F)c2)CCC(NC(=O)C(C)C)C1 (stereo not shown) . Could you help?
8.74

Hello, I am looking for reported pEC50 with human androgen receptor (AR) (Homo sapiens, UniProt P10275) for CN(C)C(=O)NC1CCc2c(c3cc(C#N)ccc3n2Cc2cccc(F)c2)C1 (stereo not shown) . Could you help?
7.94

Hello, I am looking for reported pEC50 with human androgen receptor (AR) (Homo sapiens, UniProt P10275) for CC(C)C(=O)NC1CCc2c(c3cc(Cl)ccc3n2Cc2ccccc2[N+](=O)[O-])C1 (stereo not shown) . Could you help?
6.26

Hello, I am looking for reported pEC50 with human androgen receptor (AR) (Homo sapiens, UniProt P10275) for CC(C)C(=O)NC1CCc2c(c3cc(C#N)cc(Cl)c3n2Cc2cccc(F)c2)C1 (stereo not shown) . Could you help?
7.47

Hello, I am looking for reported pEC50 with human androgen receptor (AR) (Homo sapiens, UniProt P10275) for CCOC(=O)Nc1ccc2c(c1)c1c(n2Cc2cccc(F)c2)CC[C@@H](NC(=O)C(C)C)C1 . Could you help?
8.92

Hello, I am looking for reported pEC50 with human androgen receptor (AR) (Homo sapiens, UniProt P10275) for CC(C)C(=O)N[C@@H]1CCc2c(c3cc(C#N)ccc3n2Cc2cccc(F)n2)C1 . Could you help?
9.15

* * *

target: human androgen receptor (AR) (Homo sapiens, UniProt P10275); construct: expressed in transfected cells; host or cells: mouse myoblast C2C12 cells, transiently co-transfected; experiment: C2C12 AR/ARE reporter assay; type: cell-based; conditions: C2C12, read-out: C2C12 % Efficacy
Note to self: use true only for Emax readings below 90%; a reading exactly at 90% still gets false.

Example entries begin here.
> print(dat)
                                   compound  answer.label
1  N#Cc1ccc2c(c1)c1c(n2Cc2ccccn2)CC[C@@H](NC(=O)C2CC2)C1         false
2  COc1ccccc1Cn1c2c(c3cc(Cl)ccc31)CC(NC(=O)C(C)C)CC2 (centres unmarked)          true
3  N#Cc1ccc2c(c1)c1c(n2Cc2cccc(F)c2)CCC(NC(=O)C2CC2)C1 (centres unmarked)         false
4  CC(C)C(=O)NC1CCc2c(c3cc4c(cc3n2Cc2cccc(F)c2)OC(F)(F)O4)C1 (centres unmarked)          true

Hello, I'm reviewing records and need to know if Emax of CN(C)C(=O)NC1CCc2c(c3cc(Br)ccc3n2Cc2cccc(F)c2)C1 (centres unmarked) is below 90%. Could you check?
true

Hello, I'm reviewing records and need to know if Emax of COc1cccc2c3c(n(Cc4ccccc4)c12)CCC(NC(=O)C(C)C)C3 (centres unmarked) is below 90%. Could you check?
true

Hello, I'm reviewing records and need to know if Emax of CC(C)C(=O)NC1CCc2c(c3cc(C#N)ccc3n2Cc2cccs2)C1 (centres unmarked) is below 90%. Could you check?
false
